Where do the numbers come from? From patent US20260132218A1.

Assignment: determine reported Migration assay, at 50 ug/ml (inhibition of migration of SKBR3 cells) for the given binders.
# target or system: HER2 on SKBR3 cells (human, UniProt P04626 23-1255)
# assay details: cell-based or functional assay
Just the number in %, nothing appended.

Input line: Consider the binder shown here: 12E3 (antibody, IgG1, V domains shown, also called AGRD017-12E3; fully human 12E3 antibody) VH: EVQLVGSGGGLVQPGRSLRLSCAASGFTFDDYAMHWVRQAPGKGLEWVSGISWNGGTLGYAGSVKGRFTISRDNAKNSLYLQMNSLRAEDTALYYCAKDTGSYSHWYFDLWGRGTLVTVSS VL: EIVMTQSPATLSVSPGERATLSCRASQSVRSNLAWYQQKPGQAPRLLIYGASTRATGIPARCSGSGSGTEFTLTISSLQSEDFAVYYCQQYNNWPTFGQGTKVEIK What is its recorded Migration assay, at 50 ug/ml (inhibition of migration of SKBR3 cells)?
Output line: 45

Input line: Could you tell me which Migration assay, at 50 ug/ml (inhibition of migration of SKBR3 cells) is on file for 3G7 (antibody, IgG1, V domains shown, also called AGRD017-3G7; fully human 3G7 antibody) VH: EVQLVESGGGLVQPGRSLRLSCAASGFTFDDYAMHWVRQAPGKGLEWVSGVSWNGGTMGYAGSVKGRFTISRDNAKNSLYLQMNSLRAEDTALYYCAKDTGSYSHWYFDLWGRGTLVTVSS VL: EIVMTQSPATLSVSPGERATLSCRASQSVRSNLAWYQQKPGQAPRLLIYGASTRATGIPGRFSGSGSGTEFILTISSLQSEDFAVYYCQQYNNWPTFGQGTKVEIK ?
Output line: 24
